System: ADJ/PC6 tumour
Assay: anti-tumour activity against ADJ/PC6 tumour implanted into female Balb C- mice
Format: in vivo
Settings: IP (parenteral), ADJ/PC6 tumour, in mg/kg (unit assumed)
Answer each item with its documented ED90.
Answers are plain numbers.

Examples from the recorded data:
# molecule, system, readout.number
records = [
    ("[Cl][Pt]1([Cl])[NH]CC2OC(c3ccccc3)OC2C[NH]1 (stereo not shown)", "ADJ/PC6 tumour", 30),
    ("CC1(C)OC(CN)C(CN)O1.[Cl][Pt][Cl] [cis-dichloro[(4R,5R)-4,5-bis-(aminomethyl)-2,2-dimethyl-1,3-]", "ADJ/PC6 tumour", 1.6),
    ("CC1(C)OC(CN)C(CN)O1.[Br][Pt][Br] (racemic)", "ADJ/PC6 tumour", 4),
]

stdin: Look at this molecule and give its reported ED90. CC1(C)OC(CN)C(CN)O1.[Cl][Pt][Cl] [cis-dichloro[(4S,5S)-4,5-bis-(aminomethyl)-2,2-dimethyl-1,3-]
stdout: 1.46
